System: T1, Fc Receptor-like 5 (FcRL5), full length, overexpressed on 3T3 or Raji cells (human, UniProt Q96RD9 16-977)
T1 construct: also called 3T3-FcRL5
T1 sequence: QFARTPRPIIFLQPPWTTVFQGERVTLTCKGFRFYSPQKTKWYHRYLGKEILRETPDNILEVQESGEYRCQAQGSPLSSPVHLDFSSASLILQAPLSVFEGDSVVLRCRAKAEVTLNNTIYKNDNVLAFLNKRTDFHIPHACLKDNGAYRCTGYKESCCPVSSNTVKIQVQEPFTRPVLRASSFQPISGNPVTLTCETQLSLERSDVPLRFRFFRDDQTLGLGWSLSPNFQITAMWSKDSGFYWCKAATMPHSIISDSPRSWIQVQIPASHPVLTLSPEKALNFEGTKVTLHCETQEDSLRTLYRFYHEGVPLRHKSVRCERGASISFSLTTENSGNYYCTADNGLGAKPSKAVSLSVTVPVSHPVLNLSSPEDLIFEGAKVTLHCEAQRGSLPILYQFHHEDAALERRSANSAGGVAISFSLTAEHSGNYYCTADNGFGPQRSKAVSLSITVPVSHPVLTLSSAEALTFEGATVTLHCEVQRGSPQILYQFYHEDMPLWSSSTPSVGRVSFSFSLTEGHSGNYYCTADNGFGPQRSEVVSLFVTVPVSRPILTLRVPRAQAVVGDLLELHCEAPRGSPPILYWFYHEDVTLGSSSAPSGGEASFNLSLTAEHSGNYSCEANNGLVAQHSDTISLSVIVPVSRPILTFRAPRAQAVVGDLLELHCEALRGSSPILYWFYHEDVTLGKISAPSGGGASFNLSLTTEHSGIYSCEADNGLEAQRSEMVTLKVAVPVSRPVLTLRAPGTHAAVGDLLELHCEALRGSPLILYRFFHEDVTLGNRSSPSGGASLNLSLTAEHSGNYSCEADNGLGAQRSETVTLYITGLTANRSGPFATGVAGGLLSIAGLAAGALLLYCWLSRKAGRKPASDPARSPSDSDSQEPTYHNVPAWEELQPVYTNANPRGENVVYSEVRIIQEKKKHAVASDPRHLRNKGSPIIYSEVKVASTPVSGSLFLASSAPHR
Measurement Description: phage clone screening on cells

Binder	binding result
ET200-031 (scFv, screened as phage clone; entry is VL-linker-VH-His tag-HA tag; also called ET200-31) scFv: SYVLTQPPSVSVAPGKTARITCGGNNIGSKSVHWYQQKPGQAPVLVIYYDSDRPSGIPERFSGSNSGNTATLTISRVEAGDEADYYCQVWDSSSDYVFGTGTKVTVLGSRGGGGSGGGGSGGGGSLEMAEVQLVETGGGLVKPGGSLRLSCAASGFTVSDYYMSWIRQAPGKGLEWISYISGSGNSIYYADSVKGRFTISRDNAKNSLDLQMTSLRAEDTAVYYCARSTKFDYWGQGTLVTVSSTSGQAGQHHHHHHGAYPYDVPDYAS	binds
